- System: P. falciparum K1 (chloroquine-resistant)
- TEST METHOD NOTES: pLDH antimalarial assay, P. falciparum K1 culture
- Format: cell-based, Plasmodium falciparum
- CONDITION PARAMETERS: Plasmodium falciparum, K1, 48 h, read-out: P. falciparum K1 (CQ-Resistant) EC50 ± S.D.
pEC50: −log10 of the molar value.

{"COMPOUND": "CCN(CC)CCCC(C)Nc1ccnc2cc(Cl)ccc12 (stereo not shown) [CQ, chloroquine, reference compound]", "pEC50": 6.48}

====

- TEST METHOD NOTES: MTT cytotoxicity assay
- Assay type: cell-based
- CONDITION PARAMETERS: African green monkey, Vero cells (ATCC CCL-81), read-out: Vero Cell (Normal Cell) CC50 ± S.D.

{"CHEMICAL STRING": "Nc1ccnc2ccccc12", "CC50 at 48 h / µM": 114}
